The values you see were collected from patent US20090253669A1.

# inhibition at 10 µM listing for each entry below
- tested.target: human B1R receptor (hB1R) (Homo sapiens, UniProt P46663)
- Construct: host or cells: CHO K1 cells
- Sequence (P46663 whole entry): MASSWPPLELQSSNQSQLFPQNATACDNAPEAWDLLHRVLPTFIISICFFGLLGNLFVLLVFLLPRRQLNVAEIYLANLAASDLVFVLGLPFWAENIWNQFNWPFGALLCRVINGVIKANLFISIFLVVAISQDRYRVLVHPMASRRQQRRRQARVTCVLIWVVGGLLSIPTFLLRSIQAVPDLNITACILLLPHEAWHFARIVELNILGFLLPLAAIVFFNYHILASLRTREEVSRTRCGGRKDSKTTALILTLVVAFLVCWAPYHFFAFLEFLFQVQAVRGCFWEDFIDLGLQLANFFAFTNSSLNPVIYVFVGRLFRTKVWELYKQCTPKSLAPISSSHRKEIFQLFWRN
- measurement.protocol: FLIPR Ca2+ assay on hB1R-transfected CHO K1 cells, antagonistic action
- Assay type: cell-based
- condition.summary: CHO-K1, 10 μM test substance; agonist Lys-Des-Arg9-bradykinin 0.5 nM; % of maximum achievable inhibition; read-out: hB1R [10 μM] % inhibition
readout.label: inhibition at 10 µM (%)

| compound | tested.target | readout.units | numeric.readout |
| --- | --- | --- | --- |
| COc1cc(C)c(S(=O)(=O)N2CCCCC2COCC(=O)NC2CCC(Cc3ccccc3)(N3CCOCC3)CC2)c(C)c1 (stereo not shown) | human B1R receptor (hB1R) (Homo sapiens, UniProt P46663) | % | 97 |
| COc1cc(C)c(S(=O)(=O)N2CCCCC2COCC(=O)N(C)CCC2CCC(c3ccccc3)(N3CCCC3)CC2)c(C)c1 (stereo not shown) | human B1R receptor (hB1R) (Homo sapiens, UniProt P46663) | % | 103 |
| CN1CCN(C2(c3cccc(F)c3)CCN(C(=O)COCC3COc4ccccc4N3S(=O)(=O)c3ccccc3C(F)(F)F)CC2)CC1 (stereo not shown) | human B1R receptor (hB1R) (Homo sapiens, UniProt P46663) | % | 84 |
| CN(CCC1CCC(c2ccccc2)(N2CCCC2)CC1)C(=O)CC1CCCCN1S(=O)(=O)c1cccc(C(F)(F)F)c1 (stereo not shown) | human B1R receptor (hB1R) (Homo sapiens, UniProt P46663) | % | 101 |
| CN1CCN(C2(CCc3ccccc3)CCN(C(=O)CC(NS(=O)(=O)c3ccc4ccccc4c3)c3ccccc3)CC2)CC1 (stereo not shown) | human B1R receptor (hB1R) (Homo sapiens, UniProt P46663) | % | 99 |
| COc1cc(C)c(S(=O)(=O)N2CCCC[C@H]2COCC(=O)N(C)CCC2CCC(c3ccccc3)(N3CCCC3)CC2)c(C)c1 (stereo partly shown) | human B1R receptor (hB1R) (Homo sapiens, UniProt P46663) | % | 99 |
| COc1cc(C)c(S(=O)(=O)N(C)CCOCC(=O)N2CCC(c3ccccc3)(N3CCN(C)CC3)CC2)c(C)c1 | human B1R receptor (hB1R) (Homo sapiens, UniProt P46663) | % | 103 |

---

- tested.target: B1R receptor of the rat (rB1R) (Rattus norvegicus)
- Construct: host or cells: CHO K1 cells
- measurement.protocol: FLIPR Ca2+ assay on rB1R-transfected CHO K1 cells, antagonistic action
- Type: cell-based
- condition.summary: CHO-K1, 10 μM test substance; agonist Des-Arg9-bradykinin 100 nM; % of maximum achievable inhibition; read-out: rB1R [10 μM] % inhibition
Attribute: inhibition at 10 µM

| compound | inhibition at 10 µM |
| --- | --- |
| CN(CCOCC(=O)NC1CCC(c2ccccc2)(N2CCCC2)CC1)S(=O)(=O)c1c(Cl)cc(Cl)cc1Cl (stereo not shown) | 55% |
| Cc1cc(S(=O)(=O)N2CCCCC2CCC(=O)N(C)CCC2CCC(CCc3ccccc3)(N(C)C)CC2)c(C)cc1Cl (stereo not shown) | 43% |
| COc1cc(C)c(S(=O)(=O)N2CCC(OCC(=O)NC3CCC(Cc4ccccc4C)(N(C)C)CC3)C2)c(C)c1 (stereo not shown) | 82% |
| COc1cc(C)c(S(=O)(=O)N2CCCC2COCC(=O)NCC2CCC(Cc3ccccc3)(N3CCOCC3)CC2)c(C)c1 (stereo not shown) | 86% |
| COc1cc(C)c(S(=O)(=O)N(C)CCOCC(=O)N(C)CCC2CCC(Cc3ccccc3)(N(C)C)CC2)c(C)c1 (stereo not shown) | 100% |
| CN(CCC1CCC(Cc2ccccc2)(N(C)C)CC1)C(=O)CC1CCCCN1S(=O)(=O)c1cccc(C(F)(F)F)c1 (stereo not shown) | 93% |
| COc1cc(C)c(S(=O)(=O)N2CCCCC2COCC(=O)N2CCC(CCc3ccccc3)(N(C)C)CC2)c(C)c1 (stereo not shown) | 100% |

---

In this section, each of the compounds is paired with its reported inhibition at 10 µM.
- tested.target: B1R receptor of the rat (rB1R) (Rattus norvegicus)
- Construct: host or cells: CHO K1 cells
- measurement.protocol: FLIPR Ca2+ assay on rB1R-transfected CHO K1 cells, antagonistic action
- Format: cell-based
- condition.summary: CHO-K1, read-out: rB1R [10 μM] % inhibition
readout.label: inhibition at 10 µM (%)

| compound | readout.units | numeric.readout |
| --- | --- | --- |
| CNC1(c2ccncc2)CCN(C(=O)COCCN(C)S(=O)(=O)c2c(C)cc(OC)cc2C)CC1 [Compound 209] | % | 99 |
| CN1CCN(C2(c3cccc(F)c3)CCN(C(=O)COCC3CCCCN3S(=O)(=O)c3ccccc3C(F)(F)F)CC2)CC1 (stereo not shown) [Compound 225] | % | 101 |
| CN1CCN(C2(c3cccc(F)c3)CCN(C(=O)CCCC3CCCCN3S(=O)(=O)c3ccccc3C(F)(F)F)CC2)CC1 (stereo not shown) [Compound 213] | % | 100 |
| CN1CCN(C2(c3cccc(F)c3)CCN(C(=O)CCCC3CCCCN3S(=O)(=O)c3cccc4ccccc34)CC2)CC1 (stereo not shown) [Compound 215] | % | 100 |

---

- tested.target: B1R receptor of the rat (rB1R) (Rattus norvegicus, UniProt P97583)
- Construct: host or cells: CHO K1 cells
- Sequence (P97583 1-337): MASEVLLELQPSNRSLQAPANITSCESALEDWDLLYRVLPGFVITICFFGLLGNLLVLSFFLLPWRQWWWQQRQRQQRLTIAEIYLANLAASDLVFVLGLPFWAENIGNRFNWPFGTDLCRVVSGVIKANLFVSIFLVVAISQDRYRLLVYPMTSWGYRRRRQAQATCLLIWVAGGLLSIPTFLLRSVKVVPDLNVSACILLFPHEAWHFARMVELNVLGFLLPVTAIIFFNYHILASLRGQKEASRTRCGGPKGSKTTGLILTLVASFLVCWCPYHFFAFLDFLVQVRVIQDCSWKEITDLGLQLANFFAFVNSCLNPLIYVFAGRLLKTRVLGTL
- measurement.protocol: FLIPR Ca2+ assay on rB1R-transfected CHO K1 cells, antagonistic action
- Type: cell-based
- condition.summary: CHO-K1, 10 μM test substance; agonist Des-Arg9-bradykinin 100 nM; % of maximum achievable inhibition; read-out: rB1R [10 μM] % inhibition
readout.label: inhibition at 10 µM (%)

| compound | numeric.readout |
| --- | --- |
| CN(CCCC1CCC(Cc2ccccc2)(N2CCCC2)CC1)C(=O)CC1CCCCN1S(=O)(=O)c1cccc(C(F)(F)F)c1 (stereo not drawn) | 94 |
| COc1cc(C)c(S(=O)(=O)N2CCCCC2COCC(=O)N(C)CCCC2CCC(c3cccc(F)c3)(N3CCCC3)CC2)c(C)c1 (stereo not drawn) | 103 |
| CN1CCN(C2(CCc3ccccc3)CCC(CN(C)C(=O)COCCN(C)S(=O)(=O)c3c(Cl)cc(Cl)cc3Cl)CC2)CC1 (stereo not drawn) | 28 |
| COc1cc(C)c(S(=O)(=O)N2CCC(OCC(=O)N(C)CC3CCC(CCc4ccccc4)(N4CCN(C)CC4)CC3)C2)c(C)c1 (stereo not drawn) | 76 |
| COc1cc(C)c(S(=O)(=O)N2CCCCC2COCC(=O)N2CCC(c3ccc(F)cc3)(N3CCN(C)CC3)CC2)c(C)c1 (stereo not drawn) | 99 |
| COc1cc(C)c(S(=O)(=O)N(C)CCOCC(=O)N(C)CCCC2CCC(Cc3ccccc3)(N3CCCC3)CC2)c(C)c1 (stereo not drawn) | 99 |

---

- tested.target: B1R receptor of the rat (rB1R) (Rattus norvegicus)
- Construct: host or cells: CHO K1 cells
- Sequence (P97583 1-337): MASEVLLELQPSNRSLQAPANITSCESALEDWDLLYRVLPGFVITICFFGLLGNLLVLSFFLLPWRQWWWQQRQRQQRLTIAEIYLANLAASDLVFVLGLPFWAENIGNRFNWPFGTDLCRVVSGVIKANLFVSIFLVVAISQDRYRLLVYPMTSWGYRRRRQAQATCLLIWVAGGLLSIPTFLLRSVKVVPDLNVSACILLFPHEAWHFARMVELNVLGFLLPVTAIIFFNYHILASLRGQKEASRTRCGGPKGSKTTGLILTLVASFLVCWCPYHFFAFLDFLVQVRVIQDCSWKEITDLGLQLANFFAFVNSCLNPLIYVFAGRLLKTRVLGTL
- measurement.protocol: FLIPR Ca2+ assay on rB1R-transfected CHO K1 cells, antagonistic action
- Format: cell-based
- condition.summary: CHO-K1, 10 μM test substance; agonist Des-Arg9-bradykinin 100 nM; % of maximum achievable inhibition; read-out: rB1R [10 μM] % inhibition

| molecule | inhibition at 10 µM (%) |
| --- | --- |
| CN(CCCC1CCC(c2ccccc2)(N2CCCC2)CC1)C(=O)CC(NS(=O)(=O)c1ccc2ccccc2c1)c1ccccc1 (centres unmarked) | 53 |
| O=C(COCC1CCCN(S(=O)(=O)c2c(Cl)cc(Cl)cc2Cl)C1)NC1CCC(c2ccccc2)(N2CCCC2)CC1 (centres unmarked) | 50 |
| CN(CCC1CCC(CCc2ccccc2)(N(C)C)CC1)C(=O)COCC1CCc2ccccc2N1S(=O)(=O)c1ccc(Cl)c(Cl)c1 (centres unmarked) | 88 |
| CN1CCN(C2(c3cccc(F)c3)CCN(C(=O)COCC3CCc4ccccc4N3S(=O)(=O)c3ccc(Cl)c(Cl)c3)CC2)CC1 (centres unmarked) | 82 |
| Cc1ccccc1CC1(N(C)C)CCC(NC(=O)COCCN(C)S(=O)(=O)c2ccc(Cl)cc2Cl)CC1 (centres unmarked) | 39 |
| COc1cc(C)c(S(=O)(=O)N(C)CCOCC(=O)N2CCC(c3ccncc3)(N(C)C)CC2)c(C)c1 | 99 |
| CN(CC1CCC(Cc2ccccc2)(N2CCCC2)CC1)C(=O)CC1CCCCN1S(=O)(=O)c1cccc(C(F)(F)F)c1 (centres unmarked) | 93 |
| CN(CCC1CCC(CCc2ccccc2)(N(C)C)CC1)C(=O)CC1CCCCN1S(=O)(=O)c1cccc(C(F)(F)F)c1 (centres unmarked) | 99 |
| O=C(CC(NS(=O)(=O)c1ccc2ccccc2c1)c1ccccc1)N1CCC(c2ccccc2)(N2CCN(c3ccncc3)CC2)CC1 (centres unmarked) | 91 |
| CN(CCC1CCC(c2ccccc2)(N2CCCC2)CC1)C(=O)CC(NS(=O)(=O)c1ccc2ccccc2c1)c1ccccc1 (centres unmarked) | 101 |
| CN1CCN(C2(Cc3ccccc3)CCC(CN(C)C(=O)COC3CCCN(S(=O)(=O)c4c(Cl)cc(Cl)cc4Cl)C3)CC2)CC1 (centres unmarked) | 77 |
| COc1cc(C)c(S(=O)(=O)N(C)CCOCC(=O)NC2CCC(Cc3ccc(F)cc3)(N(C)C)CC2)c(C)c1 (centres unmarked) | 95 |
| CN1CCN(C2(CCc3ccccc3)CCN(C(=O)CC3CCCCN3S(=O)(=O)c3cccc(C(F)(F)F)c3)CC2)CC1 (centres unmarked) | 69 |
| COc1cc(C)c(S(=O)(=O)N2CCCCC2COCC(=O)NCC2CCC(c3ccccc3)(N3CCOCC3)CC2)c(C)c1 (centres unmarked) | 99 |
